- Tested on: NCI-H23
- METHOD: NCI tumour cell line growth inhibition, 48 h
Calls of active or inactive are those of the source. Cut-off read from the data, not from the text of the source: active = GI50 up to about 1.1 µM and inactive = higher.
Possible outcomes: 1 (yes) (active), 0 (no) (inactive)

In [3]: df
Out[3]:
                                    compound      cat
 0  C1=Cc2ccccc2C1.C=C(C)c1ccccc1.[N-]=[N+]=Nc1ccccc1   0 (no)
 1  Cc1cn(C2CC(O)C(CO)C2C)c(=O)[nH]c1=O (stereo not given)   0 (no)
 2  CN1c2ccccc2N(C(=O)c2ccc(Cl)cc2)C(CC(=O)O)c2cccn21 (stereo not given)   0 (no)
 3  COC1=CC(=O)c2c(O)c3c(c(O)c2C1=O)CC(C)(O)OC3 (stereo not given)   0 (no)
 4  COC(=O)/C=C(C)/C=C/C1OC(C)OCC1O (stereo not given)   0 (no)
 5  COC(=O)N1N=C(c2ccccc2)C1c1ccccc1 (stereo not given)   0 (no)
 6  CN1CCN(P2(=S)Oc3ccc4ccccc4c3-c3c(ccc4ccccc34)O2)CC1   0 (no)
 7        O=c1ccc(-c2ccc(-n3ccnc3)cc2)nn1CCO   0 (no)
 8  Cc1c(F)c(N)c2c(=O)cc(-c3ccc(N)c(F)c3)oc2c1F   0 (no)
 9     CCOC(=O)c1c(NC(=O)OC)c(C#N)c2n1CCCCC2   0 (no)
10  CCN(CC)c1ccc(/N=N/c2ccc(-c3nc4cccn(C)c-4n3)cc2)cc1   0 (no)
11  CCN(CC)CCn1ccc(=O)c2cc3c(=O)ccn(CCN(CC)CC)c3c(C)c21   0 (no)
12  COc1ccc(C2Oc3c(c(O)cc4c3[C@H](c3ccc(O)cc3O)[C@H](O)C(c3ccc(O)c(O)c3)O4)C[C@@H]2O)cc1O (stereo not given in full)   0 (no)
13                CCCCCCC(=O)c1ccc2ccccc2c1O   0 (no)
14                        Brc1ccc2ns[s+]c2c1   0 (no)
15  CN(C)CCN1Nc2c3ccccc3nc3c(C(=O)NCCCN(C)CCCNC(=O)c4ccc5c6c(c7ccccc7nc46)NN5CCN(C)C)ccc1c23  1 (yes)
16       Nc1nc2c(ncn2Cc2ccccc2CCO)c(=O)[nH]1   0 (no)
17  CC(=O)C1=C(C)N2C(=NC3=C(CCc4ccccc43)C2c2ccc(Cl)cc2)S1 (stereo not given)   0 (no)
18                           CCCCCCCCCCCNC=O   0 (no)
19  CC(C)(C)c1cc(OCc2nnc(S)n2N)c(Cl)cc1OCc1nnc(S)n1N   0 (no)
20  Cc1cccc(NC(=O)c2cc3cc(/N=N/c4ccccc4Cl)ccc3oc2=O)c1   0 (no)
21                 COc1c2occc2cc2ccc(=O)oc12   0 (no)
22  Cc1ccc2c(O)c3c(cc2c1)C(=O)c1c2c(cc(O)c1C3=O)C1(C)OC(O2)C(O)C(N(C)C)C1O (stereo not given)   0 (no)
23  COc1ccc(OC)c(NC(=O)CCC/C(CC(=O)c2ccc(O)c(OC)c2)=N\Nc2ccc([N+](=O)[O-])cc2)c1   0 (no)
24  COc1cccc2c1cc([N+](=O)[O-])c1c(C(=O)O)cc3c(c12)OCO3   0 (no)
25  CCOC1(OCC)C2C=CC1C(COS(=O)(=O)c1ccc(C)cc1)C2COS(=O)(=O)c1ccc(C)cc1 (stereo not given)   0 (no)
26  O=S(=O)(N/N=C/c1ccc(/C=N/NS(=O)(=O)c2ccccc2)cc1)c1ccccc1   0 (no)
27                  Cc1csc2nc(-c3ccncc3)cn12   0 (no)
28  Cc1ccc2c(=O)cc(-c3ccc(-c4ccccc4)s3)[nH]c2n1   0 (no)
29  O=C(Nc1cccc(O)c1)C(=O)C(C(=O)c1ccccc1F)C1OC(=O)c2ccccc21 (stereo not given)   0 (no)
30  CN(C)CCCN1c2ccc(O)cc2Sc2ccc(Cl)cc21 [7-HYDROXYCHLORPROMAZINE]   0 (no)
31             CCOC(=O)C(CCSC)(CCSC)C(=O)OCC   0 (no)
32  C[N+]1(CCCCN2c3ccccc3Sc3cc(N=[N+]=[N-])ccc32)CCN(C(=O)CCNC(=O)Cc2ccc(C(=O)c3ccccc3)cc2)CC1   0 (no)
33  Cn1cc(NC(=O)c2cc(NC(=O)CCCCCCCCCCC(=O)Nc3cc(C(=O)Nc4cc(C(=O)NCCC(=N)N)n(C)c4)n(C)c3)cn2C)cc1C(=O)NCCC(=N)N   0 (no)
34  Cc1ccc2c(c1)C(=O)/C(=C\c1ccccc1)CCS2(=O)=O   0 (no)
35                  CNc1ccc2c(c1)Cc1ccccc1-2   0 (no)
36  CN(CCCNC(=O)c1nn(-c2ccccc2)c2c1Cc1ccccc1-2)CCCNC(=O)c1nn(-c2ccccc2)c2c1Cc1ccccc1-2   0 (no)
37        CCCCCCCCCCCCOP(N)(=O)OCCCCCCCCCCCC   0 (no)
38  O=Cc1ccc2c(c1)CC1(C2)Cc2ccc3c(c2C1)CCC3 (stereo not given)   0 (no)
39  O=C1/C(=C/c2ccco2)N=C(c2ccccc2)N1c1ccc(S(=O)(=O)Nc2nccs2)cc1   0 (no)

Values from ChEMBL document CHEMBL1201862
